IC50 tested on Substance-P receptor (Homo sapiens): recorded values
Sequence (P25103 whole entry): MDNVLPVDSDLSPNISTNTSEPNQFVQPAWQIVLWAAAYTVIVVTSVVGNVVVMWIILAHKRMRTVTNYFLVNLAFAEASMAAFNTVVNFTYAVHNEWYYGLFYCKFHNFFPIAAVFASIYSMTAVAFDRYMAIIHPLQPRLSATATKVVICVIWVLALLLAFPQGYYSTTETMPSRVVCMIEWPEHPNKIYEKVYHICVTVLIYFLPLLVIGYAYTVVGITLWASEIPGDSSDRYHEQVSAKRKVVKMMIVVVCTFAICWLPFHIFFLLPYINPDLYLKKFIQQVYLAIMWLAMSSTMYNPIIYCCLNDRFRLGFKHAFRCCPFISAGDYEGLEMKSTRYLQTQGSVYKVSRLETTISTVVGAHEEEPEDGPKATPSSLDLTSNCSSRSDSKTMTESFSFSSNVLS
observed.property: IC50 (nM)

> print(dat)
                               input.smiles  value.units  observed.measurement
1  N#Cc1ccc(-c2cc(COCC3(c4ccccc4)CCNCC3)cc(C(F)(F)F)c2)cc1           nM                  0.59
2  CN1CCC(COCc2cc(-c3ccc(C#N)cc3)cc(C(F)(F)F)c2)(c2ccccc2)CC1           nM                   0.2

* * *

Recorded pIC50, one value per entry.
Target: Substance-P receptor (Meriones unguiculatus)
Test: Displacement of [125I]-substance P from gerbil NK1 receptor expressed in HEK293 cell membranes incubated for 30 mins by liquid scintillation counting method
pIC50: −log10 of the molar value.
observed.property: pIC50

> print(dat)
                                    compound  observed.measurement
 1  FC(F)(F)c1cc(COCC2(c3ccccc3)CCNCC2)cc(-c2ccccc2)c1                  8.20
 2  N#Cc1c(F)c(F)c(-c2cc(COCC3(c4ccccc4)CCNCC3)cc(C(F)(F)F)c2)c(F)c1F                  8.32
 3  FC(F)(F)c1cc(COCC2(c3ccccc3)CCNCC2)cc(-c2nccs2)c1                  7.15
 4  COc1ccc(-n2cnnn2)cc1CO[C@H]1CCCN[C@H]1c1ccccc1                 10.30
 5  Fc1ccc(-c2cc(COCC3(c4ccccc4)CCNCC3)cc(C(F)(F)F)c2)cc1                  8.66
 6  CCN1CCC(COCc2cc(-c3ccc(C#N)cc3)cc(C(F)(F)F)c2)(c2ccccc2)CC1                  9.60
 7  Oc1cccc(-c2cc(COCC3(c4ccccc4)CCNCC3)cc(C(F)(F)F)c2)c1                  7.89
 8  Nc1cccc(-c2cc(COCC3(c4ccccc4)CCNCC3)cc(C(F)(F)F)c2)c1                  7.60
 9  COc1ccc(-n2nnnc2C)cc1COCC1(c2ccccc2)CCNCC1                  7.06
10  N#Cc1ccc(-c2cc(COCC3(c4ccccc4)CCN(Cc4ccccc4)CC3)cc(C(F)(F)F)c2)cc1                  8.70
11  Cc1nnnn1-c1cc(COCC2(c3ccccc3)CCNCC2)cc(C(F)(F)F)c1                  6.74
12  FC(F)(F)c1cc(COCC2(c3ccccc3)CCNCC2)cc(-c2ccccn2)c1                  7.39
13  N#Cc1cc(F)c(-c2cc(COCC3(c4ccccc4)CCNCC3)cc(C(F)(F)F)c2)cc1F                  9.04
14  COc1ccc(-n2nnnc2C)cc1CO[C@H]1CCCN[C@H]1c1ccccc1                 10.30
15  CCOc1ccc(-c2cc(COCC3(c4ccccc4)CCNCC3)cc(C(F)(F)F)c2)cc1                  8.47
16  N#Cc1ccc(-c2cc(COCC3(c4ccccc4)CCNCC3)cc(C(F)(F)F)c2)cn1                  8.72
17  FC(F)(F)c1cc(COCC2(c3ccccc3)CCNCC2)cc(-c2nnn[nH]2)c1                  6.70
18  FC(F)(F)c1cc(COCC2(c3ccccc3)CCNCC2)cc(-c2cccc3ccccc23)c1                  6.27
19  C[C@@H](O[C@H]1OCCN(Cc2n[nH]c(=O)[nH]2)[C@H]1c1ccc(F)cc1)c1cc(C(F)(F)F)cc(C(F)(F)F)c1 [APREPITANT]                 10.05

* * *

// reported Kp per item
Test: Ratio of drug concentration in brain to plasma of gerbil foot tap model at 10 mg/kg, po
Type: ADME, organism-based
Conditions: gerbillinae, read-out: BPR
observed.property: Kp

> print(dat)
                               input.smiles  observed.property  observed.measurement
1  N#Cc1ccc(-c2cc(COCC3(c4ccccc4)CCNCC3)cc(C(F)(F)F)c2)cc1                 Kp                  0.52
2  CN1CCC(COCc2cc(-c3ccc(C#N)cc3)cc(C(F)(F)F)c2)(c2ccccc2)CC1                 Kp                   2.5

* * *

Molecular target: Substance-P receptor (Meriones unguiculatus, UniProt Q5DUB1)
Sequence (Q5DUB1 whole entry): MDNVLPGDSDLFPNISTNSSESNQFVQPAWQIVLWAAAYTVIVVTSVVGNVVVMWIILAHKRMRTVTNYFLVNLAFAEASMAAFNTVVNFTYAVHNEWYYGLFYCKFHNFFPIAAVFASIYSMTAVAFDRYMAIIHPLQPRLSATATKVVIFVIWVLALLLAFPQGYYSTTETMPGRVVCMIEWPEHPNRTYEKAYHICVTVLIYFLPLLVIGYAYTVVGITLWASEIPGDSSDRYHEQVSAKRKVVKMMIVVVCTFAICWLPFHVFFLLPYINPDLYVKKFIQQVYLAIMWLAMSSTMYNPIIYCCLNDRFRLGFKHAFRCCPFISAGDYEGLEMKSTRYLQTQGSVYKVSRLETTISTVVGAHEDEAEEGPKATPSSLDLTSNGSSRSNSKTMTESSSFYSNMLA
Assay: Displacement of [125I]-substance P from gerbil NK1 receptor expressed in HEK293 cell membranes incubated for 30 mins by liquid scintillation counting method
pIC50: −log10 of the molar value.
observed.property: pIC50

> print(dat)
                               input.smiles  observed.property  observed.measurement
1  COc1ccccc1-c1cc(COCC2(c3ccccc3)CCNCC2)cc(C(F)(F)F)c1              pIC50                  7.27
2  O=[N+]([O-])c1ccc(-c2cc(COCC3(c4ccccc4)CCNCC3)cc(C(F)(F)F)c2)cc1              pIC50                  8.42
3  CC(C)N1CCC(COCc2cc(-c3ccc(C#N)cc3)cc(C(F)(F)F)c2)(c2ccccc2)CC1              pIC50                  9.41
4  Fc1ccccc1-c1cc(COCC2(c3ccccc3)CCNCC2)cc(C(F)(F)F)c1              pIC50                  7.64
5  FC(F)(F)c1cc(COCC2(c3ccccc3)CCNCC2)cc(-c2ccc(Cl)cc2)c1              pIC50                  8.55
6  Cn1nnnc1-c1cc(COCC2(c3ccccc3)CCNCC2)cc(C(F)(F)F)c1              pIC50                  7.19
7  FC(F)(F)c1cc(COCC2(c3ccccc3)CCNCC2)cc(-c2ccco2)c1              pIC50                  7.33
8  FC(F)(F)c1cc(COCC2(c3ccccc3)CCNCC2)cc(-c2ccncc2)c1              pIC50                  8.80
9  COc1ccc(-n2nnnc2C(F)(F)F)cc1CO[C@H]1CCCN[C@H]1c1ccccc1              pIC50                 10.52

* * *

Target: UniProt Q5DUB1
Assay: Displacement of [125I]-substance P from gerbil NK1 receptor expressed in HEK293 cell membranes incubated for 30 mins by liquid scintillation counting method
pIC50: −log10 of the molar value.
Using pIC50 as the sorting value, the categories are bucket 1 = under 7, bucket 2 = from 7 up to 8, bucket 3 = 8 and over

> print(dat)
                               input.smiles   target.entity  classification
1  CN(C)c1ccc(-c2cc(COCC3(c4ccccc4)CCNCC3)cc(C(F)(F)F)c2)cc1  UniProt Q5DUB1        bucket 2
2  N#Cc1cccc(-c2cc(COCC3(c4ccccc4)CCNCC3)cc(C(F)(F)F)c2)c1  UniProt Q5DUB1        bucket 2
3  Cn1nnc(-c2cc(COCC3(c4ccccc4)CCNCC3)cc(C(F)(F)F)c2)n1  UniProt Q5DUB1        bucket 2
4  N#Cc1c(F)cc(-c2cc(COCC3(c4ccccc4)CCNCC3)cc(C(F)(F)F)c2)cc1F  UniProt Q5DUB1        bucket 3
5  Cc1cccc(-c2cc(COCC3(c4ccccc4)CCNCC3)cc(C(F)(F)F)c2)c1  UniProt Q5DUB1        bucket 2
6  FC(F)(F)c1cc(COCC2(c3ccccc3)CCNCC2)cc(-n2nnnc2C(F)(F)F)c1  UniProt Q5DUB1        bucket 1

* * *

Molecular target: Substance-P receptor (Meriones unguiculatus, UniProt Q5DUB1)
Experiment: Displacement of [125I]-substance P from gerbil NK1 receptor expressed in HEK293 cell membranes incubated for 30 mins by liquid scintillation counting method
Set-up: species or system Gerbillinae
pIC50: −log10 of the molar value.
The reader will find reported pIC50 values listed item by item below.
observed.property: pIC50

> print(dat)
                               input.smiles  observed.property  observed.measurement
1  COc1ccc(-c2cc(COCC3(c4ccccc4)CCNCC3)cc(C(F)(F)F)c2)cc1              pIC50                  9.03
2  COC(=O)c1ccc(-c2cc(COCC3(c4ccccc4)CCNCC3)cc(C(F)(F)F)c2)cc1              pIC50                  7.77
3  N#Cc1ccc(-c2cc(COCC3(c4ccccc4)CCNCC3)cc(C(F)(F)F)c2)cc1              pIC50                  9.35
4  FC(F)(F)c1ccc(-c2cc(COCC3(c4ccccc4)CCNCC3)cc(C(F)(F)F)c2)cc1              pIC50                  7.52
5  Cc1ccccc1-c1cc(COCC2(c3ccccc3)CCNCC2)cc(C(F)(F)F)c1              pIC50                  6.89
6  N#Cc1ccc(-c2cc(COCC3(c4ccccc4)CCNCC3)cc(C(F)(F)F)c2)cc1F              pIC50                  8.96
7  N#Cc1ccc(-c2cc(COCC3(c4ccccc4)CCN(C4CC4)CC3)cc(C(F)(F)F)c2)cc1              pIC50                  8.74
8  FC(F)(F)c1cc(COCC2(c3ccccc3)CCNCC2)cc(-c2ccc3c(c2)OCO3)c1              pIC50                  8.15
9  O=[N+]([O-])c1cccc(-c2cc(COCC3(c4ccccc4)CCNCC3)cc(C(F)(F)F)c2)c1              pIC50                  8.28

All values here come from ChEMBL document CHEMBL3596162.
